Biological target: Olfr74 F260Y (Mus musculus, UniProt Q920P1, F260Y)
Sequence (Q920P1 entry or part of it F260Y): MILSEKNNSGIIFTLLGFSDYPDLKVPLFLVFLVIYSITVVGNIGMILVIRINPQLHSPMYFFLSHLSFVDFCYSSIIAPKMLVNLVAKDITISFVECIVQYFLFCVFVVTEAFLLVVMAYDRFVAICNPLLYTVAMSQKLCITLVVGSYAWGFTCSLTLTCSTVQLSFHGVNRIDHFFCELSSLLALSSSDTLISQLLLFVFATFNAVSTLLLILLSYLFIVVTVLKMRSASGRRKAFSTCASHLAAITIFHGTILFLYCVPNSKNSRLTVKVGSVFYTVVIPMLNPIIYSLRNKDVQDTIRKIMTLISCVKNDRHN
Assay: cAMP reporter gene (SEAP) assay, Olfr74 F260Y in Hana3A cells
Format: cell-based
Details: EC50 Olfr74 F260Y, Hana3A cells, SEAP reporter
Listed here: items and their measured EC50.
Give just the number in µM; leave the unit off.

Previously resolved entries follow.
1) CCOc1cc(C=O)ccc1O [Ethyl vanillin, ethyl vanillin] | 171
2) COC(=O)c1ccc(O)c(OC)c1 [Methyl vanillate, methyl vanillate] | 447

# next compound below
Looking up C/C=C/c1ccc(OC)c(OC)c1 [MIEG, methyl isoeugenol] , I found its EC50 recorded as 406
